PBM binding z-score listing for selected sequences.
- Test system: PPARg:RXRa 270nM:90nM, anti-RXR (NR concentration 270 nM, RXRa partner concentration 90 nM)
- Test: PBM binding z-score (relative to random genomic background probes); higher = stronger binding; sequences stand for … in GC…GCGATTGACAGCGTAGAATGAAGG
Quantity: PBM binding z-score

In [3]: df
Out[3]:
                              residues  value_measured
 0  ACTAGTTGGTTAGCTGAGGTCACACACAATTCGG            2.35
 1  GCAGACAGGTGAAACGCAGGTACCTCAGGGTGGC          -0.439
 2  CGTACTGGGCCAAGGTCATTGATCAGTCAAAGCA            4.29
 3  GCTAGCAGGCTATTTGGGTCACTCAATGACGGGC            1.36
 4  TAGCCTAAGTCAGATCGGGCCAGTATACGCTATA          -0.628
 5  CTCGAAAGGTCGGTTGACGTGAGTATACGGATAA           0.822
 6  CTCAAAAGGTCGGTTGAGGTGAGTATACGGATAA            1.29
 7  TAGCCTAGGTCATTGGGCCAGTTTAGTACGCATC            3.27
 8  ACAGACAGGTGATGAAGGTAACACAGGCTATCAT           0.295
 9  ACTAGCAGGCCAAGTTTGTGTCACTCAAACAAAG          -0.574
10  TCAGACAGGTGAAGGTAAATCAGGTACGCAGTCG            2.39
11  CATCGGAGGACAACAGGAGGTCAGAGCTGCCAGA           0.724
12  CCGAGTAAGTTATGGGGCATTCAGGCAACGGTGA           0.385
13  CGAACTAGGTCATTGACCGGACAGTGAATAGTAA            6.07
14  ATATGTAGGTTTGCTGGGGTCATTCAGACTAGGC             3.1
15  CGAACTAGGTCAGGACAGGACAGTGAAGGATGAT             5.1
16  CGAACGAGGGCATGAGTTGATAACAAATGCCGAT            1.35
17  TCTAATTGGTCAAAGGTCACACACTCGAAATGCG            9.75
18  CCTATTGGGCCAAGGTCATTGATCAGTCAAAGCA            3.83
19  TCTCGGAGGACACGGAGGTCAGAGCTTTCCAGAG            1.54
20  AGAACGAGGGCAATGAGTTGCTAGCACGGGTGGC           0.875
21  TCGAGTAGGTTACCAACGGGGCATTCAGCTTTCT            1.13
22  GCTGCTAGGTCAACTGATGGTCTGCTAAAGCTCG            2.78
23  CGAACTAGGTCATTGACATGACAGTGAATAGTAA            6.52
24  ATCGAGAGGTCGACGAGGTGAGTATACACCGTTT            2.03
25  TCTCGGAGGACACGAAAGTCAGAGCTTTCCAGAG           0.487
26  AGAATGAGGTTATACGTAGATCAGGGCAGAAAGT            2.15
27  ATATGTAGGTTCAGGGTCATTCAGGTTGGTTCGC            7.14
28  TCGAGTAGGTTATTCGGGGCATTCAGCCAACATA            1.19
29  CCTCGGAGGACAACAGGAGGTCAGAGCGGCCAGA           0.182
30  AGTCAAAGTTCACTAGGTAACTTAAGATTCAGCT            6.55
31  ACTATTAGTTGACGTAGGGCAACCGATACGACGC         0.00726
32  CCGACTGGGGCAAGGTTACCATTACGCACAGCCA            3.17
33  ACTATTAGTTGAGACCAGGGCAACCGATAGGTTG           0.263
34  CAAACTAGGTAACAGAGGTCAAAGTCCGTGCGTA            6.35
35  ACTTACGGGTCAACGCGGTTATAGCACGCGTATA            5.47
36  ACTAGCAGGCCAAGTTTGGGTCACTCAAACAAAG           0.413
37  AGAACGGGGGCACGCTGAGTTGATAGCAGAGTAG            4.86
38  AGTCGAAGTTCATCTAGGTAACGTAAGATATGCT            2.32
39  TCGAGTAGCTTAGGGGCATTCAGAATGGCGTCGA           0.211
40  TGAAAGAGGTTATAAGATCAGGGAACGTTGCAAA            1.46
41  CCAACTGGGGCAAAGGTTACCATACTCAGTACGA            9.99
42  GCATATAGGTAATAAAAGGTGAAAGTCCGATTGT            2.12
43  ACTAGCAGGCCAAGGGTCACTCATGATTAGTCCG            7.48
44  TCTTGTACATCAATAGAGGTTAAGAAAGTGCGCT            1.72
45  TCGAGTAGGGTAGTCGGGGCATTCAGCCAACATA           0.468
46  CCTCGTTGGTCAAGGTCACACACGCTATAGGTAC            3.17
47  CTTACAGGGTCAGCTAGGCCAGAGTAGGGACGGC            3.24
48  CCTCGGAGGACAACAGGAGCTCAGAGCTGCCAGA              -1
49  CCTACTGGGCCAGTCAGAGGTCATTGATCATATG            3.32
50  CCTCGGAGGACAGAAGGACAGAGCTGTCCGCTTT          -0.854

----------
- Tested on: FXR:RXRa (NR concentration 270 nM, RXRa partner concentration 90 nM)
- Test: PBM binding z-score (relative to random genomic background probes); higher = stronger binding; sequences stand for … in GC…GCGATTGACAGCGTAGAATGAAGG
PBM binding z-score listing for selected sequences.
Quantity: PBM binding z-score

In [3]: df
Out[3]:
                              residues             quantity  value_measured
 0  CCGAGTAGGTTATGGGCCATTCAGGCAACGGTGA  PBM binding z-score           -0.39
 1  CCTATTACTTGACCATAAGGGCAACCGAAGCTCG  PBM binding z-score            1.19
 2  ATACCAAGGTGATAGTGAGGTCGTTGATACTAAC  PBM binding z-score            1.53
 3  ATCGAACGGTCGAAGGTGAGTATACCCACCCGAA  PBM binding z-score          -0.145
 4  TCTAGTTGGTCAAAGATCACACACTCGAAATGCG  PBM binding z-score            1.08
 5  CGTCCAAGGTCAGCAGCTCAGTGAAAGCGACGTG  PBM binding z-score            5.06
 6  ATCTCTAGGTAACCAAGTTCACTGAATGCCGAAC  PBM binding z-score           0.969
 7  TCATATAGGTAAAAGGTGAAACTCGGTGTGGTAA  PBM binding z-score             2.3
 8  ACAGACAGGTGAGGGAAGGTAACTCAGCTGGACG  PBM binding z-score           0.596
 9  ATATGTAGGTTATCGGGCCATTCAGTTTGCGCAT  PBM binding z-score           0.607
10  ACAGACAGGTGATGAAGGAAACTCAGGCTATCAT  PBM binding z-score           0.101
11  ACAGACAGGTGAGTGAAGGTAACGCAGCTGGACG  PBM binding z-score           0.617
12  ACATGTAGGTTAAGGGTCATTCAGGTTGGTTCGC  PBM binding z-score            5.47
13  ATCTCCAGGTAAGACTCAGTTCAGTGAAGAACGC  PBM binding z-score           0.579
14  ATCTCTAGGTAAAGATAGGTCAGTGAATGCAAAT  PBM binding z-score           0.743
15  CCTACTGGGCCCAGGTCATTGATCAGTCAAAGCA  PBM binding z-score            1.37
16  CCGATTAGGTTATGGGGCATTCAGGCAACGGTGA  PBM binding z-score           0.472
17  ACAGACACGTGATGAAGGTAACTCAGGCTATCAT  PBM binding z-score           0.135
18  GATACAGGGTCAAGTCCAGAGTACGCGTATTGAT  PBM binding z-score             7.3
19  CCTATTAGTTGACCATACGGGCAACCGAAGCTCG  PBM binding z-score           0.382
20  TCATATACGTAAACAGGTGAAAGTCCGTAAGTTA  PBM binding z-score            1.15
21  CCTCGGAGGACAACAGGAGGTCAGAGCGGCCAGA  PBM binding z-score            1.36
22  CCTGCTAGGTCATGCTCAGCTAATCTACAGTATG  PBM binding z-score            3.21
23  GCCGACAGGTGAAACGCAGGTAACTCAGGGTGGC  PBM binding z-score          -0.479
24  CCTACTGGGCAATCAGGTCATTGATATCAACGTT  PBM binding z-score           0.891
25  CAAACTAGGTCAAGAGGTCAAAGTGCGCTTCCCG  PBM binding z-score            7.08
